- Tested on: Aspergillus niger
- protocol: Antifungal activity against Aspergillus niger ATCC 16404 after 24 to 48 hrs by paper disk diffusion assay
- Format: functional
The entries below come with measured diameter of the inhibition zone (DIZ) values attached.
recorded-endpoint: diameter of the inhibition zone (DIZ)

smiles_data=CCCCCCCCCCCCNC(=O)CO[C@H]1O[C@H](COC(C)=O)C=C(OC(C)=O)/C1=C\C(=O)OCC readout_value="<12 mm"
smiles_data=C#CCNC(=O)CO[C@H]1O[C@H](COC(C)=O)C=C(OC(C)=O)/C1=C\C(=O)OCC readout_value="<12 mm"
smiles_data=CCOC(=O)/C=C1\C(OC(C)=O)=C[C@@H](COC(C)=O)O[C@@H]1OCC(=O)NCc1ccccc1 readout_value="<12 mm"

Values compiled from ChEMBL document CHEMBL1641513.
